Data provenance: patent US12325696B2

Molecular target: estrogen receptor ERα Y537S mutant-type (Homo sapiens (Human), UniProt P03372, Y537S)
Sequence (P03372 296-554 Y537S): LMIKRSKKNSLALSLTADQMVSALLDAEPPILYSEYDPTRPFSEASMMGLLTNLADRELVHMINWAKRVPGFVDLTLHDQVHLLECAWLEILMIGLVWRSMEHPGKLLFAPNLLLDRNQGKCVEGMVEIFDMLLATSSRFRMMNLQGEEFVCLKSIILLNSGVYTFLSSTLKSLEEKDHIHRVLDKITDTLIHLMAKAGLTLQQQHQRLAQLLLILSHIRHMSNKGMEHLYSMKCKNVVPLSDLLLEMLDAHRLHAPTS
Experiment: Covalent modification of ERα Y537S mutant-type LBD by high-resolution mass spectrometry
Type: binding
Settings: after 24 hours; 2 μM protein, 10 μM compound, 4° C.
MEASURED_ENDPOINT: Covalent modification effect on the estrogen receptor ERα Y537S mutant-type (%)
Please reply with the bare figure in % and do not write the unit itself.

For orientation, consider the following solved cases.
>>> print(df.to_string())
                                   compound  value_reported
0  O=C(/C=C/CNC1(COc2ccc(/C(=C(/CC(F)(F)F)c3ccccc3)c3ccc4[nH]nc(F)c4c3)cn2)CC1)N1CCCC1 [Example 2]              90
1  O=C(/C=C/CNC1(COc2ccc(/C(=C(/CC(F)(F)F)c3ccccc3)c3ccc4[nH]nc(F)c4c3)cn2)CC1)N1CC[C@H](O)C1 [Example 41]              95

Please supply the value of reported Covalent modification effect on the estrogen receptor ERα Y537S mutant-type for the item CN(C)C(=O)/C=C/CN1CCC[C@@H](Oc2ccc(/C(=C(/CC(F)(F)F)c3ccccc3)c3ccc4[nH]nc(F)c4c3)cn2)C1 [Example 14] 94
